Below, each entry is listed with its recorded fluorescence intensity.
TEST_PROTOCOL: compound fluorescence in toxin protease inhibitor counterscreen, primary screen, artefact control for toxin protease inhibitor project, biochemical, multiplex microsphere, HTS (AID 624483)
RUN_CONDITIONS: compound autofluorescence counterscreen, microsphere flow cytometry; hits give high values
The whole screen tested about 360,000 compounds, of which about 11,000 (3.1%) were called active. About 2% were inconclusive and are not listed. The sample as a whole holds a higher share of actives than the screen did.
Write the value as a bare number.

Would you please look over these solved cases?
C(=C\c1ccccc1)/CSc1nnc(-c2cccnc2)n1Cc1ccco1 :: 23400
CCCCc1ccc(S(=O)(=O)NC(=O)C2(C)CCN2C(=O)c2c(C)noc2C)cc1 (stereo unspecified) :: 2860
O=C(CCC(=O)NNc1nc2ccccc2c2nc(-c3ccccc3)nn12)NCCCN1CCCC1=O :: 2420
COc1ccccc1NC(=O)CSc1nc2sc(C)c(C)c2c(=O)n1Cc1ccco1 :: 22300
CCn1c(SCC(=O)Nc2cc(C)c(Cl)cc2OC)nnc1-c1ccco1 :: 5870

Which fluorescence intensity value belongs to `CC(C)n1c(NCc2c[nH]c3ccccc23)nc2ccccc21` ?
2940

Which fluorescence intensity value belongs to `O=C1CCc2cc(S(=O)(=O)N3CCC(C(=O)NCc4ccccc4Cl)CC3)ccc2N1` ?
5010

Which fluorescence intensity value belongs to `COc1cc(Cl)c(C)cc1NC(=O)CSc1nnc(-c2cccnc2)n1Cc1ccco1` ?
20700

Which fluorescence intensity value belongs to `CC(C)(O)C#Cc1ccc(CNC[C@H]2O[C@@H](n3cnc4c(=O)[nH]c(N)nc43)[C@H](O)[C@@H]2O)s1` ?
6310

Which fluorescence intensity value belongs to `O=Cc1c(NCCCN2CCCC2=O)c2ccccc2[nH]c1=O` ?
3940

Which fluorescence intensity value belongs to `O=C(NNS(=O)(=O)c1c(F)cc(F)c(Cl)c1F)C12CC3CC(CC(C3)C1)C2` ?
4000

Which fluorescence intensity value belongs to CCC(c1nnnn1-c1ccc2c(c1)OCCO2)N1CCN(c2ccc(C(F)(F)F)cn2)CC1 (stereo unspecified) ?
5170

Which fluorescence intensity value belongs to `Cc1nn(Cc2ccccc2)c(C)c1C(=O)NCCCN1CCCC1=O` ?
3680

Which fluorescence intensity value belongs to CCC1(C)Cc2c(sc3[nH]c(=S)n(Cc4ccccc4)c(=O)c23)CO1 (stereo unspecified) ?
2880

Which fluorescence intensity value belongs to CCCS(=O)(=O)NC(=O)C1(C)CCCN(C(=O)c2ccnc(Cl)c2)C1 (stereo unspecified) ?
3780

Which fluorescence intensity value belongs to `N#Cc1ccc(C(c2ccc(C#N)cc2)n2cncn2)cc1` ?
5930

Which fluorescence intensity value belongs to `O=C1CCCN1CCCNc1ncnc2c1[nH]c1ccccc12` ?
23000

====

TEST_PROTOCOL: compound fluorescence in toxin protease inhibitor counterscreen, primary screen, artefact control for toxin protease inhibitor project, biochemical, multiplex microsphere, HTS (AID 624483)
RUN_CONDITIONS: compound autofluorescence counterscreen, microsphere flow cytometry; hits give high values
In all, about 360,000 compounds went through this assay and about 11,000 (3.1%) were called active. Another 2% or so got no clear call; they are omitted. This excerpt belongs to a sample that is enriched for actives.
ASSAY_ENDPOINT: fluorescence intensity
Write the value as a bare number.

CCOc1ccc(NC(=O)CCNC(=O)c2ccc(Br)cc2)cc1 :: 3030
O=C(Nc1cccnc1)c1noc2c1CCCCC2 :: 24400
CCCCNC(=O)CCNC(=O)c1ccc(C(C)(C)C)cc1 :: 20300
CCc1nc2c(OCc3ccc(C(=O)OC)cc3)cccn2c1N(C)C(=O)C(C)C :: 3990
CC1CCCN(S(=O)(=O)c2ccc(-c3ccc(=O)[nH]n3)o2)C1 (stereo unspecified) :: 5950

Next molecule, please.
Which fluorescence intensity value belongs to CC1(C(=O)Nc2cccnc2)Cc2c(-c3ccccc3)ccnc2O1 (stereo unspecified) ?
2820
